System: SUP-B15 (B-Lymphoblastic Leukemia)
Test: combination Emax (second highest fraction inhibited in the dose matrix, 72 h); higher = more inhibition; extreme values may be limits of the assay
Let's look at some compounds and their measured combination Emax.
The reply should be a number, written without any unit.

# count of solved cases: 2
compound="CC1(C)CCC(CN2CCN(c3ccc(C(=O)NS(=O)(=O)c4ccc(NCC5CCOCC5)c([N+](=O)[O-])c4)c(Oc4cnc5[nH]ccc5c4)c3)CC2)=C(c2ccc(Cl)cc2)C1 [Venetoclax] + C1CN(CCC1(C(=O)N[C@@H](CCO)C2=CC=C(C=C2)Cl)N)C3=NC=NC4=C3C=CN4 [Capivasertib] (first compound max 1 µM, 7x7, partner max 3 µM)" reported_value=1
compound="CN(CCO)CC[C@H](CSc1ccccc1)Nc1ccc(S(=O)(=O)NC(=O)c2ccc(N3CCC([C@@H](O)c4ccccc4-c4ccc(Cl)cc4)CC3)cc2)cc1S(=O)(=O)C(F)(F)F [AZD4320] + C[C@@H]1COCCN1C2=NC(=NC(=C2)C3(CC3)[S@](=N)(=O)C)C4=C5C=CNC5=NC=C4 [AZD6738] (first compound max 1 µM, 7x7, partner max 10 µM)" reported_value=1

Consider the additional compound presented here.
# input # lookup: combination Emax of CCN(CCO)CCCOc1ccc2c(Nc3cc(CC(=O)Nc4cccc(F)c4)[nH]n3)ncnc2c1 [AZD2811] + O=C(c1cc(Cc2n[nH]c(=O)c3ccccc23)ccc1F)N1CCN(C(=O)C2CC2)CC1 [Olaparib] (first compound max 1 µM, 7x7, partner max 10 µM)
# output 0.976
